System: MALME-3M multicell spheroids, viability
test: Anticancer human tumor MALME-3M cell line growth inhibition [TAK];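 further: spheroids exposed to drugs for seven days before readout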;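 on viability, T/C: 100% = DMSO vehicle control viability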
condition set: second compound 0.949 µM; first compound 0.00316 µM; stronger effect = lower value
Mark satisfied for viability, T/C under 70%, not satisfied if at or over.

# count of solved cases: 4
| compound | class assignment |
| --- | --- |
| COc1c(OCCCN2CCOCC2)ccc2c3n(c(=NC(=O)c4cnc(N)nc4)nc12)CCN3 + CC(C)NCC(C(=O)N1CCN(c2ncnc3c2C(C)CC3O)CC1)c1ccc(Cl)cc1 | not satisfied |
| COC1CC2CCC(C)C(O)(O2)C(=O)C(=O)N2CCCCC2C(=O)OC(C(C)CC2CCC(OCCO)C(OC)C2)CC(=O)C(C)C=C(C)C(O)C(OC)C(=O)C(C)CC(C)C=CC=CC=C1C (stereo not given) + CC(C)NCC(C(=O)N1CCN(c2ncnc3c2C(C)CC3O)CC1)c1ccc(Cl)cc1 | satisfied |
| CC(C)CC(NC(=O)CNC(=O)c1cc(Cl)ccc1Cl)B1OC(=O)CC(CC(=O)O)(C(=O)O)O1 (stereo not given) + CC(C)NCC(C(=O)N1CCN(c2ncnc3c2C(C)CC3O)CC1)c1ccc(Cl)cc1 | not satisfied |
| CC(C)CC(NC(=O)C(Cc1ccccc1)NC(=O)c1cnccn1)B(O)O (stereo not given) + CC(C)NCC(C(=O)N1CCN(c2ncnc3c2C(C)CC3O)CC1)c1ccc(Cl)cc1 | satisfied |

(Q) Would you kindly verify if viability, T/C of CC(C)n1nc(-c2ccc3oc(N)nc3c2)c2c(N)ncnc21 + CC(C)NCC(C(=O)N1CCN(c2ncnc3c2C(C)CC3O)CC1)c1ccc(Cl)cc1 is strictly less than 70%?
(A) satisfied

----------
Tested on: MALME-3M multicell spheroids, viability
test: Anticancer human tumor MALME-3M cell line growth inhibition [TAK];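 further: spheroids exposed to drugs for seven days before readout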;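 on viability, T/C: 100% = DMSO vehicle control viability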
condition set: second compound 30 µM; first compound 1 µM; stronger effect = lower value
Listing: viability, T/C of selected compounds
Number in %, nothing else.

| compound | viability, T/C (%) |
| --- | --- |
| CCCS(=O)(=O)Nc1ccc(F)c(C(=O)c2c[nH]c3ncc(-c4ccc(Cl)cc4)cc23)c1F + CC(C)NCC(C(=O)N1CCN(c2ncnc3c2C(C)CC3O)CC1)c1ccc(Cl)cc1 | 16.4 |
| Cc1nc(NC(=O)N2CCCC2C(N)=O)sc1-c1ccnc(C(C)(C)C(F)(F)F)c1 (centres undefined) + CC(C)NCC(C(=O)N1CCN(c2ncnc3c2C(C)CC3O)CC1)c1ccc(Cl)cc1 | 42 |
| CC(C)(C)c1nc(-c2cccc(NS(=O)(=O)c3c(F)cccc3F)c2F)c(-c2ccnc(N)n2)s1 + CC(C)NCC(C(=O)N1CCN(c2ncnc3c2C(C)CC3O)CC1)c1ccc(Cl)cc1 | 11.4 |

Now take the following compound into account.
(Q) Give the measured viability, T/C of COc1c(OCCCN2CCOCC2)ccc2c3n(c(=NC(=O)c4cnc(N)nc4)nc12)CCN3 + CC(C)NCC(C(=O)N1CCN(c2ncnc3c2C(C)CC3O)CC1)c1ccc(Cl)cc1 .
(A) 6.33

----------
System: MALME-3M multicell spheroids, viability
test: Anticancer human tumor MALME-3M cell line growth inhibition [TAK]; active means viability on the fitted dose curve at most 10% of control; inactive means the rest;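 further: spheroids exposed to drugs for seven days before readout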
condition set: second compound 30 µM; first compound 0.0316 µM
Assign a class; possible classes are 1 for active, -1 for inactive

| compound | class assignment |
| --- | --- |
| COC1CC2CCC(C)C(O)(O2)C(=O)C(=O)N2CCCCC2C(=O)OC(C(C)CC2CCC(OCCO)C(OC)C2)CC(=O)C(C)C=C(C)C(O)C(OC)C(=O)C(C)CC(C)C=CC=CC=C1C (stereo unspecified) + CC(C)NCC(C(=O)N1CCN(c2ncnc3c2C(C)CC3O)CC1)c1ccc(Cl)cc1 | -1 |
| CC(C)n1nc(-c2ccc3oc(N)nc3c2)c2c(N)ncnc21 + CC(C)NCC(C(=O)N1CCN(c2ncnc3c2C(C)CC3O)CC1)c1ccc(Cl)cc1 | -1 |
| COc1c(OCCCN2CCOCC2)ccc2c3n(c(=NC(=O)c4cnc(N)nc4)nc12)CCN3 + CC(C)NCC(C(=O)N1CCN(c2ncnc3c2C(C)CC3O)CC1)c1ccc(Cl)cc1 | -1 |
| Cc1nc(NC(=O)N2CCCC2C(N)=O)sc1-c1ccnc(C(C)(C)C(F)(F)F)c1 (stereo unspecified) + CC(C)NCC(C(=O)N1CCN(c2ncnc3c2C(C)CC3O)CC1)c1ccc(Cl)cc1 | -1 |
| CC(C)(C)c1nc(-c2cccc(NS(=O)(=O)c3c(F)cccc3F)c2F)c(-c2ccnc(N)n2)s1 + CC(C)NCC(C(=O)N1CCN(c2ncnc3c2C(C)CC3O)CC1)c1ccc(Cl)cc1 | -1 |

(Q) Would you mind telling me which call this test gave CC(C)CC(NC(=O)CNC(=O)c1cc(Cl)ccc1Cl)B1OC(=O)CC(CC(=O)O)(C(=O)O)O1 (stereo unspecified) + CC(C)NCC(C(=O)N1CCN(c2ncnc3c2C(C)CC3O)CC1)c1ccc(Cl)cc1 ?
(A) 1

----------
Tested on: MALME-3M multicell spheroids, viability
test: Anticancer human tumor MALME-3M cell line growth inhibition [TAK];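 further: spheroids exposed to drugs for seven days before readout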;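 on viability, T/C: 100% = DMSO vehicle control viability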
condition set: second compound 3 µM; first compound 0.316 µM; stronger effect = lower value
Description: Combinatorial screen of targeted agents with TAK-243 and ipatasertib in multi-cell type tumor spheroids […] Compounds. […] If the clinical Cmax for an agent had not been determined, the highest concentration tested was 10 microM. NCI60 Cell Culture. […] The optimal seeding densities for each of the cell lines at each time point assessed were determined prior to performing the concentration response studies. […]
endpoint name: viability, T/C (%)
Number in %, nothing else.

Examples from the recorded data:
| molecule | viability, T/C [%] |
| --- | --- |
| COc1c(OCCCN2CCOCC2)ccc2c3n(c(=NC(=O)c4cnc(N)nc4)nc12)CCN3 + CC(C)NCC(C(=O)N1CCN(c2ncnc3c2C(C)CC3O)CC1)c1ccc(Cl)cc1 | 16.7 |
| CC(C)(C)c1nc(-c2cccc(NS(=O)(=O)c3c(F)cccc3F)c2F)c(-c2ccnc(N)n2)s1 + CC(C)NCC(C(=O)N1CCN(c2ncnc3c2C(C)CC3O)CC1)c1ccc(Cl)cc1 | 21.3 |
| Cc1nc(NC(=O)N2CCCC2C(N)=O)sc1-c1ccnc(C(C)(C)C(F)(F)F)c1 (centres undefined) + CC(C)NCC(C(=O)N1CCN(c2ncnc3c2C(C)CC3O)CC1)c1ccc(Cl)cc1 | 79.3 |

Now take the following molecule into account.
(Q) Give the measured viability, T/C of CCCS(=O)(=O)Nc1ccc(F)c(C(=O)c2c[nH]c3ncc(-c4ccc(Cl)cc4)cc23)c1F + CC(C)NCC(C(=O)N1CCN(c2ncnc3c2C(C)CC3O)CC1)c1ccc(Cl)cc1 .
(A) 30

----------
Test system: MALME-3M multicell spheroids, viability
test: Anticancer human tumor MALME-3M cell line growth inhibition [TAK];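 further: spheroids exposed to drugs for seven days before readout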;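 on viability, T/C: 100% = DMSO vehicle control viability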
condition set: second compound 0.3 µM; first compound 0.000316 µM; stronger effect = lower value
endpoint name: viability, T/C (%)
Number in %, nothing else.

Examples from the recorded data:
| compound | tested on | endpoint name | reported measurement |
| --- | --- | --- | --- |
| COC1CC2CCC(C)C(O)(O2)C(=O)C(=O)N2CCCCC2C(=O)OC(C(C)CC2CCC(OCCO)C(OC)C2)CC(=O)C(C)C=C(C)C(O)C(OC)C(=O)C(C)CC(C)C=CC=CC=C1C (centres undefined) + CC(C)NCC(C(=O)N1CCN(c2ncnc3c2C(C)CC3O)CC1)c1ccc(Cl)cc1 | MALME-3M multicell spheroids, viability | viability, T/C | 87.7 |
| CC(C)CC(NC(=O)C(Cc1ccccc1)NC(=O)c1cnccn1)B(O)O (centres undefined) + CC(C)NCC(C(=O)N1CCN(c2ncnc3c2C(C)CC3O)CC1)c1ccc(Cl)cc1 | MALME-3M multicell spheroids, viability | viability, T/C | 108 |
| CC(C)n1nc(-c2ccc3oc(N)nc3c2)c2c(N)ncnc21 + CC(C)NCC(C(=O)N1CCN(c2ncnc3c2C(C)CC3O)CC1)c1ccc(Cl)cc1 | MALME-3M multicell spheroids, viability | viability, T/C | 87.8 |

Now take the following compound into account.
(Q) Give the measured viability, T/C of CC(C)CC(NC(=O)CNC(=O)c1cc(Cl)ccc1Cl)B1OC(=O)CC(CC(=O)O)(C(=O)O)O1 (centres undefined) + CC(C)NCC(C(=O)N1CCN(c2ncnc3c2C(C)CC3O)CC1)c1ccc(Cl)cc1 .
(A) 109

----------
System: MALME-3M multicell spheroids, viability
test: Anticancer human tumor MALME-3M cell line growth inhibition [TAK];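 further: spheroids exposed to drugs for seven days before readout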
condition set: curve of first compound; second compound 0.3 µM
Listing: pIC50 of selected compounds
Answer as the number alone; pIC50 is minus log10 of concentration in mol/L.

Examples from the recorded data:
| compound | reported measurement |
| --- | --- |
| COc1c(OCCCN2CCOCC2)ccc2c3n(c(=NC(=O)c4cnc(N)nc4)nc12)CCN3 + CC(C)NCC(C(=O)N1CCN(c2ncnc3c2C(C)CC3O)CC1)c1ccc(Cl)cc1 | 6.90 |
| CC(C)n1nc(-c2ccc3oc(N)nc3c2)c2c(N)ncnc21 + CC(C)NCC(C(=O)N1CCN(c2ncnc3c2C(C)CC3O)CC1)c1ccc(Cl)cc1 | 7.92 |

Now take the following compound into account.
(Q) Give the measured pIC50 of CC(C)CC(NC(=O)C(Cc1ccccc1)NC(=O)c1cnccn1)B(O)O (stereo not given) + CC(C)NCC(C(=O)N1CCN(c2ncnc3c2C(C)CC3O)CC1)c1ccc(Cl)cc1 .
(A) 8.60
